- Tested on: RPMI-8226
- assay-method-text: NCI tumour cell line growth inhibition, 48 h
The source made the active and inactive calls. Rule as the data show it: active = GI50 up to about 1.1 µM and inactive = higher. Where a SMILES comes first, the peptide text is derived from it. [ ]: non-standard residue; d: D form. The star is where a group is joined. ξ: configuration not given here. ξD = NC(CC(=O)O)C(=O)O; Ac3c = NC1(C(=O)O)CC1; Boc = CC(C)(C)OC(=O)*; OBn = c1ccc(CO*)cc1
Possible outcomes: active, inactive

compound | test-system | classification
O=C(NCCCCCCCCCCCCNC(=O)c1cccc2ccccc12)c1cccc2ccccc12 | RPMI-8226 | inactive
C#CCOCn1ccc(=O)[nH]c1=O | RPMI-8226 | inactive
CC(O[Si](C)(C)C)C1C=CC(C)n2c(=O)n(-c3ccccc3)c(=O)n21 (stereo unspecified) | RPMI-8226 | inactive
CC(C)N(C(=O)C12C3C4C1C1C2C3C41C(=O)C(C)(C)C)C(C)C (stereo unspecified) | RPMI-8226 | inactive
O=C(CC1(O)C(=O)Nc2ccccc21)c1ccccc1O (stereo unspecified) | RPMI-8226 | inactive
NC(=O)C12CC3CC(CC(Br)(C3)C1)C2 | RPMI-8226 | inactive
O=C(O)c1ccc(Nc2ccnc3cc(Cl)ccc23)cc1O | RPMI-8226 | inactive
CCOP(=O)(/C=C\n1cnc2c(=O)n(C(C)=O)c(N)nc21)OCC | RPMI-8226 | inactive
COC(=O)C1(NC(=O)C(CC(=O)OCc2ccccc2)NC(=O)OC(C)(C)C)CC1 (stereo unspecified) (Boc-[ξD](OBn)-[Ac3c]-OMe) | RPMI-8226 | inactive
O=C1C(N2CCCC2)=CC(=O)c2c(O)c(N3CCCC3)c(Cl)c(O)c21 | RPMI-8226 | inactive
Cc1cc(O)c(O)c(Oc2cc(C)cc(O)c2O)c1 | RPMI-8226 | inactive
Nc1c(S(=O)(=O)O)cc(Nc2cccc(S(N)(=O)=O)c2)c2c1C(=O)c1ccccc1C2=O | RPMI-8226 | inactive
OC12CC3c4ccccc4NC3C3Oc4cccc5c4C31CCN(CC1CC1)C2C5 (stereo unspecified) | RPMI-8226 | inactive
CC(=O)OC1CN2CCC1CC2 (stereo unspecified) | RPMI-8226 | inactive
C=C1C(=O)OC2C/C(C)=C/CC/C(C)=C/CCC3(COC(C)=O)OC3CC12 (stereo unspecified) | RPMI-8226 | inactive
Brc1ccc2c(c1)C1(c3cc(Br)ccc3-2)c2cc(Br)ccc2-c2ccc(Br)cc21 | RPMI-8226 | inactive
O=C(Cc1ccccc1)NN1C(=O)C(Cl)C1c1cccc([N+](=O)[O-])c1 (stereo unspecified) | RPMI-8226 | inactive
CN(C)CCCNC(=O)c1cc2/c(=C\c3ccc(N(C)C)cc3)c3ccccc3n2[n+]1C | RPMI-8226 | inactive
NCCCN(CCCN)CCc1cn(C(=O)c2ccccc2)cn1 | RPMI-8226 | inactive
COc1cc2cc(C(=O)N3CC(CCl)c4c3cc(N(C)C)c3ccccc43)[nH]c2c(OC)c1OC (stereo unspecified) | RPMI-8226 | active
COc1cccc2c1C(=O)c1c(O)c3c(c(O)c1C2=O)C[C@@](O)(/C(C)=N\O)C[C@@H]3OC1CC(N)C(O)C(C)O1 (stereo partly specified) | RPMI-8226 | active
CCOP(=O)(OCC)/C(C#N)=C/c1c[nH]c2ccccc12 | RPMI-8226 | inactive
C=C(c1ccccc1N)[C@@]1(O)C[C@H](/C(=C\C)CO)C[C@@H]1NCc1ccccc1 | RPMI-8226 | inactive
COC(OC)c1cccc2c1C1(O)CCC3(CC21)OCCCCO3 (stereo unspecified) | RPMI-8226 | inactive
CN(C)N1C(=O)c2ccccc2NC1c1ccccc1 (stereo unspecified) | RPMI-8226 | inactive
O=S(=O)(O)c1ccc(-c2nnc(-c3ccccn3)nc2-c2ccc(S(=O)(=O)O)o2)o1 | RPMI-8226 | inactive

* * *

- System: RPMI-8226
- assay-method-text: NCI tumour cell line growth inhibition, 48 h
Activity calls are given as the source filed them. No stated cut-off is given here; in the data, active = GI50 up to about 1.1 µM and inactive = higher.

compound | test-system | GI50
Cc1ccc(S(=O)(=O)N/N=C(/CC(=O)c2c(C)[n+]([O-])c3ccccc3[n+]2[O-])C(=O)Nc2ccccc2C)cc1 | RPMI-8226 | > 100 µM (inactive)
COc1ccc2nc3cc([N+](=O)[O-])ccc3c(NNc3ccc([N+](=O)[O-])cc3)c2c1 | RPMI-8226 | 18.7 µM (inactive)
OC1(c2ccccc2)c2ccccc2N=C2NCCN21 (stereo not given) | RPMI-8226 | 11.1 µM (inactive)
CCOC(=O)C1S/C(=N\c2ccc(Cl)c(Cl)c2)N=C1C (stereo not given) | RPMI-8226 | 17.8 µM (inactive)
Cc1ccccc1NC(=O)C(=O)C(C#N)c1ccc(Cl)cc1 (stereo not given) | RPMI-8226 | 22.6 µM (inactive)
Cc1c(Cc2ccccc2)n(C(C)OCCN(OC(=O)Oc2ccccc2)C(=O)Oc2ccccc2)c(=O)[nH]c1=O (stereo not given) | RPMI-8226 | 24.2 µM (inactive)
NC(=S)N/N=C1\CCc2ccccc2C1 | RPMI-8226 | > 100 µM (inactive)
C[C@@H](O)CCC(=O)c1ccoc1 | RPMI-8226 | > 100 µM (inactive)
CN1CCN([C@H]2C[C@H]3[C@@H]4CC=C5C[C@@H](N6CCCC6)CC[C@]5(C)[C@H]4CC[C@]3(C)[C@H]2O)CC1 | RPMI-8226 | 24.9 µM (inactive)
c1ccc2c(c1)cc1c3[nH]c4ccccc4c3ccn21 | RPMI-8226 | 4.59 µM (inactive)

* * *

- System: NCI/ADR-RES
- assay-method-text: NCI tumour cell line growth inhibition, 48 h
Active and inactive are the calls of the source. Rule as the data show it: active = GI50 up to about 1.1 µM and inactive = higher.
Classes used: Y = active, N = inactive

compound | test-system | classification
Cc1cccc(C2ON=C(c3ccccc3)N2C23CC4CC(CC(C4)C2)C3)c1 (stereo not drawn) | NCI/ADR-RES | N
O=C(c1ccccc1)C1C(C(=O)c2ccccc2)N1Cc1ccccc1 (stereo not drawn) | NCI/ADR-RES | N
CCOC(=O)C(N)CSC(=O)NC (stereo not drawn) | NCI/ADR-RES | N
CN(C(=O)c1ccc(OCCCC(=O)O)c(Cl)c1Cl)C1CCCC1 | NCI/ADR-RES | N
CSc1nc2ccccc2c(=O)n1/N=C1\C(=O)N(CN2CCOCC2)c2ccc(Cl)cc21 | NCI/ADR-RES | N
c1ccc2c(c1)c1c(n2CCOCCN2CCCC2)CCCC1 | NCI/ADR-RES | N
COc1ccc(C(=O)/C=C/c2ccc(OCC#N)cc2)cc1 | NCI/ADR-RES | N
Cc1ccc2n(c1)cc(-c1ccc(/C=N/NC(=N)N/N=C/c3ccc(-c4cn5cc(C)ccc5[n+]4C)cc3)cc1)[n+]2C | NCI/ADR-RES | N
COc1cc(OCc2ccc3nc(-c4ccccc4)c(Cl)nc3c2)cc(OC)c1OC | NCI/ADR-RES | N
O=C(NCc1ccc(Cl)cc1)c1cc2sccc2nc1C(F)(F)F | NCI/ADR-RES | N
CN(C)Cc1cc(C=O)cc(CN(C)C)c1O | NCI/ADR-RES | N
CC1=C(C(=O)NNC(=O)c2ccccc2)CC(C(=O)NNC(=O)c2ccccc2)=C(C)N1 | NCI/ADR-RES | N
COc1ccc(C2=C(Cl)C(=O)O/C2=C\c2ccc(OC)c(Br)c2)cc1Cl | NCI/ADR-RES | N
Cc1ccccc1NC(=S)N/N=C(/c1ccccc1)c1ccccn1 | NCI/ADR-RES | Y
CC(=O)N1N=C(c2c(O)ccc3ccccc23)CC1C(=O)c1ccco1 (stereo not drawn) | NCI/ADR-RES | N
CCCCCCCCCCCC1=C(O)C(=O)C=C(O)C1=O [EMBELIN] | NCI/ADR-RES | N
O=C(CN1C(=O)c2ccccc2C1=O)NC1(C(=O)O)CCCC1 | NCI/ADR-RES | N
CC(=O)N1C(Nc2cnc3ccccc3c2)CCN1c1ccccc1 (stereo not drawn) | NCI/ADR-RES | N
CC(C)(O)CO/N=C1\C(=C2\C(=O)Nc3ccccc32)Nc2ccccc21 | NCI/ADR-RES | N
O=C1c2cccc([N+](=O)[O-])c2C(=O)N1c1ncn[nH]1 | NCI/ADR-RES | N
Cc1nc(C)c(C(=O)NNC(N)=S)cc1C(=O)NNC(N)=S | NCI/ADR-RES | N
CCc1ccc2c(c1)/C(=C1/Nc3ccccc3C1=O)C(=O)N2 | NCI/ADR-RES | N
CCOC(=O)N/N=C(\Cc1ccc([N+](=O)[O-])cc1)OCC | NCI/ADR-RES | N
Brc1ccccc2cc(-c3ccccc3)nc1-2 | NCI/ADR-RES | N
COc1ccc(C(OC(=O)[C@H](O[Si](C)(C)C(C)(C)C)[C@@H](NC(=O)c2ccccc2)c2ccccc2)c2ccc(OC)cc2)cc1 | NCI/ADR-RES | N
c1cc2c(cc1[C@@H]1OC[C@@H]3[C@H]1CO[C@H]3c1ccc3c(c1)OCO3)OCO2 | NCI/ADR-RES | N
Cc1cnc2cc(Cl)ccc2c1SCC(=O)O | NCI/ADR-RES | N
Cc1ccc2c(O)cc(-c3cc(C)sc3C)nc2n1 | NCI/ADR-RES | N
CN(C)CCCSc1nc2ccccc2[nH]1 | NCI/ADR-RES | N
O=[N+]([O-])c1ccc(-[n+]2ccc3ccccc3c2)c([N+](=O)[O-])c1 | NCI/ADR-RES | N
O=c1ccn(CC2(CO)CC(Cc3ccccc3)C2)c(=O)[nH]1 (stereo not drawn) | NCI/ADR-RES | N
Cc1nc(O)c(O)c(CN2CCCCC2)n1 | NCI/ADR-RES | N
CC(=O)CC1CCC(=O)/C=C/C(=O)OC(CC(C)=O)CCC(=O)/C=C/C(=O)O1 (stereo not drawn) | NCI/ADR-RES | N
